tgt: Hepatocyte growth factor receptor (Homo sapiens)
Sequence (P08581 whole entry, the tested form may be a part): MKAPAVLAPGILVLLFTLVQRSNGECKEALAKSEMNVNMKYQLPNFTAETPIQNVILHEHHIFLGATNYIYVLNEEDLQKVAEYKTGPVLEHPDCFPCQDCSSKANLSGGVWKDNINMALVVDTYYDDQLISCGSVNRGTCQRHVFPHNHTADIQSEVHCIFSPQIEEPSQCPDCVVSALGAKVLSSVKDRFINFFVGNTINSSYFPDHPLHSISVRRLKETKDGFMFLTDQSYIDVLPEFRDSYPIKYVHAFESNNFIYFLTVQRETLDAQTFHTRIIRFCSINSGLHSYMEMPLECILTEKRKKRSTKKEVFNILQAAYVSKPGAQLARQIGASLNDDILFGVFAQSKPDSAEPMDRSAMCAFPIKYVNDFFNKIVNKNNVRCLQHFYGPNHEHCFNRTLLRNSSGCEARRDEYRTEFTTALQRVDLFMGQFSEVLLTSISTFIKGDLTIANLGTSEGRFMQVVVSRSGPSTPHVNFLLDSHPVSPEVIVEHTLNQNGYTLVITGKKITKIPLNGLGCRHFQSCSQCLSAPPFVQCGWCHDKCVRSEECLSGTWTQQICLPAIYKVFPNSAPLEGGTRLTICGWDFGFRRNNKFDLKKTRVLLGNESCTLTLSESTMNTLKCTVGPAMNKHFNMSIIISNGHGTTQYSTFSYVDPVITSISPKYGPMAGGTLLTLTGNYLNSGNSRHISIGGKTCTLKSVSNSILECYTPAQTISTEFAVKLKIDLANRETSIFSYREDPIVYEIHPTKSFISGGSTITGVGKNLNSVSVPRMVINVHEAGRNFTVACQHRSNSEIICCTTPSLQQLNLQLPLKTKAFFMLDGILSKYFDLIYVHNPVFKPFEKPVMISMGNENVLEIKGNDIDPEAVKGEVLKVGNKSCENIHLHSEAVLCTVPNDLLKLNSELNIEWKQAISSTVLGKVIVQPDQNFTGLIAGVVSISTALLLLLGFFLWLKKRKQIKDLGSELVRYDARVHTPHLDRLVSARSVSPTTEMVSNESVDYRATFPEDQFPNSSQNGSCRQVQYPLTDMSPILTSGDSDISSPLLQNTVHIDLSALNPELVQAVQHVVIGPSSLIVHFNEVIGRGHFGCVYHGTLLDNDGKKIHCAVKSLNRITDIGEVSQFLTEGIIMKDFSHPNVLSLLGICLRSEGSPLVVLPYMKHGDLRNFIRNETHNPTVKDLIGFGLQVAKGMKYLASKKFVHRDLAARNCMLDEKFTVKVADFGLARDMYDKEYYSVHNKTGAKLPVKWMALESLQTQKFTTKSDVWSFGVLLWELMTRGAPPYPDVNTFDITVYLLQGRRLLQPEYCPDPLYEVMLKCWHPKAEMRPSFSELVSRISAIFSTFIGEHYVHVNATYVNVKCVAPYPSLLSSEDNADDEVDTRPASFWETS
assayProcedure: Inhibition of GST-tagged human recombinant c-met N terminal domain expressed in Hi5 insect cells after 60 mins by liquid scintillation counting
quantityMeasured: IC50 (nM)

{"columns": ["smilesRepresentation", "quantityMeasured", "unitsOfMeasure", "numericReadout"],
 "data": [
  ["O=C(Nc1ccc(F)cc1F)c1cccnc1Nc1ccc(Oc2ccnc3[nH]ccc23)c(F)c1", "IC50", "nM", 7]
]}

###

tgt: Insulin receptor (Homo sapiens, UniProt P06213)
Sequence (P06213 28-758 limits assumed): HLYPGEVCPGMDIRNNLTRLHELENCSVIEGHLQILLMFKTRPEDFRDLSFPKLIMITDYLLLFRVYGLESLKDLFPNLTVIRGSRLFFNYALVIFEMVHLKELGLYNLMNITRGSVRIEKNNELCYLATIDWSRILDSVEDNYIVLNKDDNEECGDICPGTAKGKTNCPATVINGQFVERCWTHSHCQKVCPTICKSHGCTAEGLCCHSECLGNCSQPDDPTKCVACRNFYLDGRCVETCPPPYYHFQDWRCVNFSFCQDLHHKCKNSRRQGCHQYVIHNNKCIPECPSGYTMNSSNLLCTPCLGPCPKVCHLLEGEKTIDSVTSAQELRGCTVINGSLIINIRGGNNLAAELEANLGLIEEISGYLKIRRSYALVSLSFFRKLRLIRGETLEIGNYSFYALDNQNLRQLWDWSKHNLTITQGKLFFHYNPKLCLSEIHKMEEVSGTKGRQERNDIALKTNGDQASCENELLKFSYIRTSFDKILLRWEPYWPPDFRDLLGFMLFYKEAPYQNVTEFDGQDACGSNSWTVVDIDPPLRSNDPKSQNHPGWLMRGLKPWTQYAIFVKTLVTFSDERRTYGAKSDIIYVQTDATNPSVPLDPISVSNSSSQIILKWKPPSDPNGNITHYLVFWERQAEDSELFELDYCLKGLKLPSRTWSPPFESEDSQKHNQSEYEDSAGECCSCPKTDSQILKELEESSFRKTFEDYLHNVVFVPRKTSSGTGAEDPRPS
Sequence (P06213 763-1382 limits assumed): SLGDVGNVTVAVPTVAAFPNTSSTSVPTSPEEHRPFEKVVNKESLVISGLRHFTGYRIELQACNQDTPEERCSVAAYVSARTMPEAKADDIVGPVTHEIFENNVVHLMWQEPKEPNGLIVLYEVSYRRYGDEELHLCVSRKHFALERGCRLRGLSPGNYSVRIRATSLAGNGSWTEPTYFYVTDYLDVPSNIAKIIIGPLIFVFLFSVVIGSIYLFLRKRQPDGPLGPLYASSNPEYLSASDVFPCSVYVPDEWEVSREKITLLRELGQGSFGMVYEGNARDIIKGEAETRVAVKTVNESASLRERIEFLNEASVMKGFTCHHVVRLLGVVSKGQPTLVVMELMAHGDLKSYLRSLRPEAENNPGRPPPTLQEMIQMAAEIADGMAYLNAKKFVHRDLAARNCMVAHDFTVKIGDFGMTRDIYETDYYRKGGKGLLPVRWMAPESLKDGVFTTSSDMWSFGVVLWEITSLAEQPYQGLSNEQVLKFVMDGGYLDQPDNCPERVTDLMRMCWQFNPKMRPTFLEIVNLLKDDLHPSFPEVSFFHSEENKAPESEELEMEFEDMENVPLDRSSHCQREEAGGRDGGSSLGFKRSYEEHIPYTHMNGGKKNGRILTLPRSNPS
pIC50: −log10 of the molar value.

{"columns": ["smilesRepresentation", "pIC50"],
 "data": [
  ["O=C(Nc1ccc(F)cc1F)c1cccnc1Nc1ccc(Oc2ccnc3[nH]ccc23)c(F)c1", "< 4.30"]
]}
